Reference source: ChEMBL document CHEMBL1136278

Each entry below carries its reported pIC50.
- System: SGC-7901
- methodDescription: In vitro anti-cancer activity against SGC-7901 cell
- Format: functional, cell-based
- measurementSetup: Homo sapiens
pIC50: −log10 of the molar value.
attributeMeasured: pIC50

CCOc1cc(OCC)c2c(=O)c(CC)c(-c3ccc(C(F)(F)F)cc3)oc2c1
4.14
CCCCCCCOc1cc(OCCCCCCC)c2c(=O)cc(-c3ccc(C(F)(F)F)cc3)oc2c1
4.51
COc1cc(OC)c2c(=O)c(C)c(-c3ccc(C(F)(F)F)cc3)oc2c1
5.00
COc1cc(O)c2c(=O)cc(-c3ccccc3)oc2c1C(F)(F)F
5.23
CCOc1cc(OCC)c2c(=O)cc(-c3ccc(C(F)(F)F)cc3)oc2c1
4.36
C=CCOc1ccc2c(=O)cc(-c3ccc(C(F)(F)F)cc3)oc2c1
5.28
CCCCCCCOc1ccc2c(c1)O/C(=C\c1ccc(C(F)(F)F)cc1)C2=O
5.27
CCOc1ccc2c(c1)O/C(=C\c1ccc(C(F)(F)F)cc1)C2=O
4.81
CC(=O)Oc1c(C(F)(F)F)c(O)c2c(=O)cc(-c3ccccc3)oc2c1C(F)(F)F
5.07
C=CCOc1ccc2c(c1)O/C(=C\c1ccc(C(F)(F)F)cc1)C2=O
5.52
O=c1cc(-c2ccc(C(F)(F)F)cc2)oc2cc(O)cc(O)c12
5.18
CCCCCCCCCCOc1cc(OCCCCCCCCCC)c2c(=O)cc(-c3ccc(C(F)(F)F)cc3)oc2c1
5.04
CCCOc1cc(OCCC)c2c(=O)cc(-c3ccc(C(F)(F)F)cc3)oc2c1
5.57
COc1cc(OC)c2c(=O)cc(-c3ccc(C(F)(F)F)cc3)oc2c1
5.36
O=C1/C(=C/c2ccc(C(F)(F)F)cc2)Oc2cc(OCc3ccccc3)ccc21
4.83
CCCOc1cc(OCCC)c2c(=O)c(CCC)c(-c3ccc(C(F)(F)F)cc3)oc2c1
5.06
O=c1cc(-c2ccc(C(F)(F)F)cc2)oc2cc(O)ccc12
4.75
CCCCCCCCOc1ccc2c(=O)cc(-c3ccc(C(F)(F)F)cc3)oc2c1
5.38
COc1ccc2c(=O)cc(-c3ccc(C(F)(F)F)cc3)oc2c1
5.08
O=C1/C(=C/c2ccc(C(F)(F)F)cc2)Oc2cc(O)ccc21
5.37
COc1ccc2c(c1)O/C(=C\c1ccc(C(F)(F)F)cc1)C2=O
4.67
CCOc1ccc2c(=O)cc(-c3ccc(C(F)(F)F)cc3)oc2c1
4.54
CCCCCCCCOc1cc(OCCCCCCCC)c2c(=O)cc(-c3ccc(C(F)(F)F)cc3)oc2c1
4.74
CCCOc1ccc2c(=O)cc(-c3ccc(C(F)(F)F)cc3)oc2c1
5.25
O=c1cc(-c2ccc(C(F)(F)F)cc2)oc2cc(OCc3ccccc3)cc(OCc3ccccc3)c12
5.30
